Experiment: A CellTox Green Cytotoxicity Assay to monitor cytotoxicity in HEK293 cells - 0 hour (AID 1224869); note: % is set by controls: 0 for no effect and ±100 for the full control effect; nearly all actives have a fitted effect of over 50% in size
Details: CellTox Green fluorescence; series mostly up to 76.8 µM
Calls of active or inactive are those of the source. Calls come from the whole dose curve; as a rule, active = well fitted activation curve with a large enough effect in the repeat runs; inconclusive = weak or mixed curves; inactive = flat fitted curve, though single readings scatter.

>  <molecule>
C/C(=C\C(C)CC(C)CC(C)C)C1CC(=O)OC1=O (stereo unspecified)

>  <cytotoxicity>
inactive

$$$$
>  <molecule>
C[C@H](N)C(=O)N[C@@H](C)C(=O)NC1[C@H]2CN(c3nc4c(cc3F)c(=O)c(C(=O)O)cn4-c3ccc(F)cc3F)C[C@@H]12 (stereo partly specified)

>  <cytotoxicity>
inactive

$$$$
>  <molecule>
CCCOC(C)=O

>  <cytotoxicity>
inactive

$$$$
>  <molecule>
CCCCCCCCCCCCCCCCCCCl

>  <cytotoxicity>
0.805% [at 6.97 µM] (inactive)

$$$$
>  <molecule>
C[C@]12CCC(=O)C=C1[C@@H]1C[C@@H]1[C@H]1[C@@H]3[C@@H]4C[C@@H]4[C@@]4(CCC(=O)O4)[C@@]3(C)CC[C@@H]12

>  <cytotoxicity>
inactive

$$$$
>  <molecule>
CCCCCO

>  <cytotoxicity>
inactive

$$$$
>  <molecule>
CCCCCCCCCCCC(=O)OCC

>  <cytotoxicity>
inactive

$$$$
>  <molecule>
COc1cccc([C@H](O)C2CCN(CCc3ccc(F)cc3)CC2)c1OC

>  <cytotoxicity>
inactive

$$$$
>  <molecule>
[O-][n+]1ccc(Cl)cc1

>  <cytotoxicity>
inactive

$$$$
>  <molecule>
O=Cc1ccc([N+](=O)[O-])cc1

>  <cytotoxicity>
inactive

$$$$
>  <molecule>
CC(CN=Cc1ccccc1O)N=Cc1ccccc1O (stereo unspecified)

>  <cytotoxicity>
inactive

$$$$
>  <molecule>
CCOc1ccc2c(c1)C(C)CC(C)(C)N2 (stereo unspecified)

>  <cytotoxicity>
inactive

$$$$
>  <molecule>
CCOCCn1c(N2CCCN(C)CC2)nc2ccccc21

>  <cytotoxicity>
inactive

$$$$
>  <molecule>
NC(=O)c1cc[n+](CC2=C(C(=O)[O-])N3C(=O)[C@@H](NC(=O)Cc4cccs4)[C@H]3SC2)cc1

>  <cytotoxicity>
inactive

$$$$
>  <molecule>
O=C1C=CCCC1

>  <cytotoxicity>
inactive

$$$$
>  <molecule>
O=c1[nH]nc(-c2ccc([N+](=O)[O-])o2)o1

>  <cytotoxicity>
inactive

$$$$
>  <molecule>
CC(O)CN (stereo unspecified)

>  <cytotoxicity>
inactive

$$$$
>  <molecule>
O=Cc1ccc(Cl)c([N+](=O)[O-])c1

>  <cytotoxicity>
inactive

$$$$
>  <molecule>
CCN(CCCCOC(=O)c1ccc(OC)c(OC)c1)C(C)Cc1ccc(OC)cc1 (stereo unspecified)

>  <cytotoxicity>
inactive

$$$$
>  <molecule>
CCOc1ccc(NC(C)=O)cc1N

>  <cytotoxicity>
inactive

$$$$
>  <molecule>
CC(C)CCCCCOC(=O)CS

>  <cytotoxicity>
inactive

$$$$
>  <molecule>
Cc1c(-c2cccnc2)c2ccccc2n1CCCCC(=O)O

>  <cytotoxicity>
inactive

$$$$
>  <molecule>
CCn1nc(Cc2ccccc2)cc1C1CCN(C[C@H]2C[C@H](N(C)[C@@H](C(=O)O)C(C)C)C[C@@H]2c2cccc(F)c2)CC1

>  <cytotoxicity>
inactive

$$$$
>  <molecule>
CCOc1cc(OCC)c(C(C)=O)cc1OCC

>  <cytotoxicity>
inactive

$$$$
>  <molecule>
O=[N+]([O-])c1ccccc1CCO

>  <cytotoxicity>
inactive

$$$$
>  <molecule>
CC(C)NC(=O)c1ccccc1N

>  <cytotoxicity>
inactive

$$$$

* * *

Assay: A CellTox Green Cytotoxicity Assay to monitor cytotoxicity in HEK293 cells - 32 hour (AID 1224881); note: nearly all actives have a fitted effect of over 40% in size
Details: CellTox Green fluorescence; series mostly up to 76.8 µM
Results filed as inconclusive are left out. Activity calls are given as the source filed them. Calls follow the shape of the dose curve; as a rule, active = well fitted activation curve with a large enough effect in the repeat runs; inconclusive = weak or mixed curves; inactive = flat fitted curve, though single readings scatter.
Outcomes: active, inactive

>  <compound>
COC(=O)C(C)(C)C

>  <group>
inactive

$$$$
>  <compound>
Oc1ccc(CCNCCCCCCNCCc2ccccc2)cc1O

>  <group>
inactive

$$$$
>  <compound>
O=c1[nH]nc(-c2ccc([N+](=O)[O-])o2)o1

>  <group>
inactive

$$$$
>  <compound>
N#C[C@@H]1CC(F)(F)CN1C(=O)CNC1CC2CCC(C1)N2c1ncccn1 (some centres undefined)

>  <group>
inactive

$$$$
>  <compound>
CC1=C(C)C(=O)C(CCCCC#CCCCC#CCO)=C(C)C1=O

>  <group>
inactive

$$$$
>  <compound>
O=C(NC1CCN(CCc2c[nH]c3ccccc23)CC1)c1ccccc1

>  <group>
inactive

$$$$
>  <compound>
Cc1c(Nc2ncccc2C(=O)O)cccc1C(F)(F)F

>  <group>
inactive

$$$$
>  <compound>
SCCOCCOCCS

>  <group>
inactive

$$$$
>  <compound>
C/C(=C(\CCO)SS/C(CCO)=C(\C)N(C=O)Cc1cnc(C)nc1N)N(C=O)Cc1cnc(C)nc1N

>  <group>
inactive

$$$$
>  <compound>
CC(O)C(C)O (centres undefined)

>  <group>
inactive

$$$$
>  <compound>
CCOc1ccccc1O

>  <group>
inactive

$$$$
>  <compound>
O=C(c1ccco1)N1CCNCC1

>  <group>
inactive

$$$$
>  <compound>
CCCCCCCCCC(C)C=O (centres undefined)

>  <group>
active

$$$$
>  <compound>
O=C(O)c1cccc(C(=O)O)c1C(=O)O

>  <group>
inactive

$$$$

* * *

Experiment: qHTS assay to test for compound auto fluorescence at 535 nm (green) in HEK293 cells (AID 720680); note: % is set by controls: 0 for no effect and ±100 for the full control effect
Settings: green autofluorescence 485/535 nm; series mostly up to 91.3 µM
Active and inactive are the calls of the source. The call rests on the fitted dose curve; in most records, active means well fitted curve in the direction sought with a large enough effect in the repeat runs; inconclusive means weak or mixed curves; inactive means flat fitted curve, though single readings scatter.
observed property: fluorescence, % of fluorescein

>  <structure smiles>
COC(=O)c1cc(Cl)ccc1[N+](=O)[O-]

>  <observed property>
fluorescence, % of fluorescein

>  <result>
inactive

$$$$
>  <structure smiles>
CCOC(C)OCC

>  <observed property>
fluorescence, % of fluorescein

>  <result>
inactive

$$$$
>  <structure smiles>
NC(=O)c1cc[n+](CC2=C(C(=O)[O-])N3C(=O)[C@@H](NC(=O)Cc4cccs4)[C@H]3SC2)cc1

>  <observed property>
fluorescence, % of fluorescein

>  <result>
0.0094% [at 18.6 µM] (inactive)

$$$$
>  <structure smiles>
CC(C)C/C=C(\C=O)c1ccccc1

>  <observed property>
fluorescence, % of fluorescein

>  <result>
inactive

$$$$
>  <structure smiles>
O=[N+]([O-])c1ccccc1CCO

>  <observed property>
fluorescence, % of fluorescein

>  <result>
inactive

$$$$
>  <structure smiles>
C[C@H]1C[C@H]2[C@@H]3CCC4=CC(=O)C=C[C@]4(C)[C@@]3(F)[C@@H](O)C[C@]2(C)[C@@]1(O)C(=O)COP(=O)(O)O

>  <observed property>
fluorescence, % of fluorescein

>  <result>
inactive

$$$$

* * *

Target: Cytochrome P450 1A2 (Homo sapiens)
Assay: Cytochrome P450 Family 1 Subfamily A Member 2 (CYP1A2) small molecule antagonists: luciferase reporter qHTS assay (AID 1671199); note: nearly all actives have a fitted effect of over 50% in size
Conditions: P450-Glo CYP1A2 enzyme, luciferin luminescence, 1 h; series mostly up to 115 µM
Inconclusive results are not listed. The source made the active and inactive calls. The call rests on the fitted dose curve; in most records, active means well fitted inhibition curve with a large enough effect in the repeat runs; inconclusive means weak or mixed curves; inactive means no such curve, though single readings can be large or run the other way.
Classes used: 1 (active), 0 (inactive)

>  <compound>
NC(=O)c1ccccc1C(N)=O

>  <group>
1

$$$$
>  <compound>
CCC(C)CCCC(C)(C)O (stereo not drawn)

>  <group>
0

$$$$
>  <compound>
COC(=O)Cc1cccc2ccccc12

>  <group>
1

$$$$
>  <compound>
COc1ccc(C(=O)Nc2ccccc2)cc1[N+](=O)[O-]

>  <group>
1

$$$$
>  <compound>
CC(C)CCCCCOC(=O)CS

>  <group>
0

$$$$
>  <compound>
Cc1nc(C)c(C)nc1C

>  <group>
1

$$$$
>  <compound>
CCCCCCCCCCCCSCCOCCO

>  <group>
1

$$$$
>  <compound>
OCCCO

>  <group>
0

$$$$

* * *

Assay: qHTS assay for small molecule agonists of the antioxidant response element (ARE) signaling pathway (AID 743202); for activation: % is set by controls: 0 for no effect and ±100 for the full control effect
Details: HepG2 ARE-bla reporter, beta-lactamase FRET, 16 h; series mostly up to 73.3 µM
Results filed as inconclusive are left out. Calls of active or inactive are those of the source. Calls come from the whole dose curve; as a rule, active = well fitted activation curve with a large enough effect in the signal ratio in the repeat runs (not every such curve was filed as active); inconclusive = weak or mixed curves, or effect the other way; inactive = no such curve, though single readings can be large or run the other way; the % refers to the signal ratio.
Possible outcomes: yes (1) = active, no (0) = inactive

>  <molecule>
O=C(c1ccc(Cl)cc1)c1ccc(Cl)cc1

>  <group>
no (0)

$$$$
>  <molecule>
CC(C)=CCC/C(C)=C/C=N/O

>  <group>
no (0)

$$$$
>  <molecule>
CC1(C)[C@@H]2CC[C@]3(C2)[C@@H]1C(=O)CCC3(C)C

>  <group>
no (0)

$$$$
>  <molecule>
CCCC1CCOC(C)S1 (centres undefined)

>  <group>
no (0)

$$$$
>  <molecule>
CCc1c(C)[nH]c2c1C(=O)C(CN1CCOCC1)CC2 (centres undefined)

>  <group>
no (0)

$$$$
>  <molecule>
CC(=O)Oc1cccc2c1C(=O)c1c(OC(C)=O)cc(C(=O)O)cc1C2=O

>  <group>
yes (1)

$$$$
>  <molecule>
Cc1ccc2c(Cl)cc(Cl)c(O)c2n1

>  <group>
no (0)

$$$$
>  <molecule>
FC(F)(Cl)C(F)(Cl)Cl

>  <group>
no (0)

$$$$
>  <molecule>
CCC(C)CCCC(C)(C)O (centres undefined)

>  <group>
no (0)

$$$$
>  <molecule>
CC/C=C\CCO

>  <group>
no (0)

$$$$
>  <molecule>
CCCCOc1ccc(N)cc1

>  <group>
no (0)

$$$$
>  <molecule>
O=C(Nc1ccccc1)c1cc([N+](=O)[O-])ccc1Cl

>  <group>
yes (1)

$$$$
>  <molecule>
OCC(O)c1ccccc1 (centres undefined)

>  <group>
no (0)

$$$$
>  <molecule>
O=C(O)c1ccc2cc(O)ccc2c1

>  <group>
no (0)

$$$$
